- TARGET_ENTITY: meprin α (Homo sapiens)
- ASSAY_COMMENT: Meprin α assay, fluorogenic substrate (Mca)-YVADAPK-(K-ε-Dnp), 384 and 1536 well plate formats
- Type: biochemical
- CONDITION_LABEL: 1536 wpf; 1.3 nM enzyme; substrate 10uM; time 90 min; read-out: Actinonin IC50
OBSERVATION_TYPE: IC50 (nM)
Use nM as the unit, but write only the number.

Read off the recorded IC50 for CCCCC[C@H](CC(=O)NO)C(=O)N[C@H](C(=O)N1CCC[C@H]1CO)C(C)C
6.9

====

- TARGET_ENTITY: ADAM17 (Homo sapiens)
- Construct: purchased R&D Systems 930-ADB
- Sequence (P78536 215-824): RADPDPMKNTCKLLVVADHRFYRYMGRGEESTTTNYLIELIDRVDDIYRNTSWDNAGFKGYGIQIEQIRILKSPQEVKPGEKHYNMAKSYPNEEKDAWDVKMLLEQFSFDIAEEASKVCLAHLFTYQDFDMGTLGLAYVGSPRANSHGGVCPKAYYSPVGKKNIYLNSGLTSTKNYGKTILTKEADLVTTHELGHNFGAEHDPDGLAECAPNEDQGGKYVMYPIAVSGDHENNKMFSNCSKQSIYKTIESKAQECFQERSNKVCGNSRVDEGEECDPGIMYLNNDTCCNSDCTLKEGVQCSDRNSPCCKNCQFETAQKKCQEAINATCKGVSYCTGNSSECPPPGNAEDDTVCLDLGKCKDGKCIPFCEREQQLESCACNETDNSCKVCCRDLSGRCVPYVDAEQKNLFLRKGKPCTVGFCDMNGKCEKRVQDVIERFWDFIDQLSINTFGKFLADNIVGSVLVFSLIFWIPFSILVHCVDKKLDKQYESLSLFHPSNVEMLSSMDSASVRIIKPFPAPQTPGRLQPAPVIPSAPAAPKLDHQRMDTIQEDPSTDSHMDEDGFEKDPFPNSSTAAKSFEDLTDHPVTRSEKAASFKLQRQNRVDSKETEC
- ASSAY_COMMENT: ADAM17 assay (Mca-KPLGL-Dpa-AR-NH2 substrate)
- Format: biochemical
- CONDITION_LABEL: triplicate, 10-point, 3:1 serial dilution, highest concentration 17.4 µM
pIC50: −log10 of the molar value.
OBSERVATION_TYPE: pIC50

Consider the following illustrative entries.
MOLECULE	VALUE_MEASURED
O=C(CCN(Cc1cccs1)S(=O)(=O)c1ccc([N+](=O)[O-])cc1)NO	< 4.77
O=C(c1ccc(C(=O)O)c([N+](=O)[O-])c1)c1ccc(C(=O)O)c([N+](=O)[O-])c1	< 4.77
O=C(COc1ccc(Cl)cc1Cl)NO	< 4.77
O=C(CSc1nnc(NC(=O)c2ccccc2)s1)NO	< 4.77
CSc1nnc2c(n1)OC(c1ccc([N+](=O)[O-])o1)Nc1ccccc1-2 (stereo not shown)	4.77
O=[N+]([O-])c1ccc(CN2CCC3(CCc4ccccc43)CC2)o1	< 4.77

Write down pIC50 measured for item COc1cc(OC)cc(C(=O)CNc2nnc(SCC(=O)NO)s2)c1
5.10

Give me measured pIC50, please, for this molecule: O=C(CCN(Cc1ccccc1)S(=O)(=O)c1ccc(F)cc1)NO
< 4.77

Quote pIC50 reported for COc1ccc(-n2c(CSc3ncccn3)nnc2SCC(=O)NO)cc1 please.
< 4.77

For the molecule O=C(CSc1nnc(NC(=O)COc2ccccc2)s1)NO , give its measured pIC50 value.
< 4.77

====

- TARGET_ENTITY: meprin α (Homo sapiens, UniProt Q16819)
- Sequence (Q16819 66-593 limits assumed): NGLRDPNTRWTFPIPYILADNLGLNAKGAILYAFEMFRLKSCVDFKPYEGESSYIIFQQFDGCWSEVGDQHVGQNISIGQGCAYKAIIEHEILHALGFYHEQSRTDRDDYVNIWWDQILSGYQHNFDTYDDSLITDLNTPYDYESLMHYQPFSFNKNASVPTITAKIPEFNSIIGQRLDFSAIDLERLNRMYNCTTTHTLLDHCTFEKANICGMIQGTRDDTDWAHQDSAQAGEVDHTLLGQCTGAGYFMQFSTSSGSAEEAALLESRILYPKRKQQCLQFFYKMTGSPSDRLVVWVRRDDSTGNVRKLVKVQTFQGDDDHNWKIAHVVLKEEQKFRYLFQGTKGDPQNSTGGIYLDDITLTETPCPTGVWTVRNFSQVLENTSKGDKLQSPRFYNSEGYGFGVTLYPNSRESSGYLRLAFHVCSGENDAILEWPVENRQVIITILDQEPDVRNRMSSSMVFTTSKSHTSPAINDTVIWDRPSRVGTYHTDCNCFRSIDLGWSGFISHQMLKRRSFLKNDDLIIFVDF
- ASSAY_COMMENT: Meprin α assay, fluorogenic substrate (Mca)-YVADAPK-(K-ε-Dnp), 384 and 1536 well plate formats
- Type: biochemical
- CONDITION_LABEL: 1536 wpf; 1.3 nM enzyme; substrate 10uM; time 60 min; read-out: Actinonin IC50
OBSERVATION_TYPE: IC50 (nM)
Dear colleague, please return just the value in nM, with no unit written.

Identify IC50 associated with the molecule CCCCC[C@H](CC(=O)NO)C(=O)N[C@H](C(=O)N1CCC[C@H]1CO)C(C)C
6.4

====

- TARGET_ENTITY: meprin α (Homo sapiens)
- ASSAY_COMMENT: Meprin α assay, fluorogenic substrate (Mca)-YVADAPK-(K-ε-Dnp), 384 and 1536 well plate formats
- Type: biochemical
- CONDITION_LABEL: 1536 wpf; enzyme 0.65nM; time 60 min; read-out: Actinonin IC50
OBSERVATION_TYPE: pIC50
# pIC50 is unitless: minus log10 of the molar concentration; print number only

Fill in pIC50 for record CCCCC[C@H](CC(=O)NO)C(=O)N[C@H](C(=O)N1CCC[C@H]1CO)C(C)C
8.30

Cited source for all entries: paper PMC8000592
